Origin of the recorded values: patent US20200002405A1

molecular target: LASV 237 (lineage III) glycoprotein (Lassa virus, strain 237); test: cell-based or functional assay
endpoint-label: IC50 (neutralization)

[[record]]
binder = "25.6A (antibody, V domains shown) VH: QVQLQESGGGLVKAGGSLRLSCAASGFMFERYSLHWVRQTPGKGLEWVSSISSLSGSHINYADSVKGRFTISRDNAKNSLSLQMNSLRVEDTAIYYCARDRRSGSSPVPLDVWGQGTTVTVSS VL: DLPVLTQPASVSGSPGQSITISCTGTSSDVGAYNYVSWYQQHPGKAPKLIIYEVKIRPSGVSNRFSGSKSGNTASLTISGLQAEDEADYFCSSYSTNSPWVFGGGTKVTVLR"
data_value = "0.169 µg/mL"

[[record]]
binder = "8.11G (antibody, V domains shown) VH: QVQLQESGPGLVKPSETLSLTCSISGVSTRNYYWSWIRQSPGKGLEWIGYIFNIGTTNYNPSLKSRLTISVDTSKNQFSLKITSVTAADTAVYYCASGFEYGDYTFDYWGQGTPVTVSS VL: EIVLTQSPATLSVSPGGRASLSCRASQSIGDKLSWYQQKPGQAPRLVIYGAYTRATDISPRFSGSRSGTDFNLTISRMQSGDFAVYFCQQYENWPRTFGQGTKLEIKR"
data_value = "1.17 µg/mL"

[[record]]
binder = "37.2G (antibody, V domains shown) VH: EVQLVESGGGLVKPGGSRRLSCAASGFTFSRDTMTWVRQAPGKGLEWVASISSGSSDINYADSVKGRFTISRDNGKNSLYLHMNSLRADDTAIYYCARDPRSGISGRYGMDVWGQGTTVTVSS VL: DIVLTQSPGTLSLSPGERATLSCRASQSVNSIFLAWYQQKPGQAPRLLIYGASSRATGIPDRFSGSGSGTDFTLTISRLEPEDFAVYYCQQYHSSPKLTFGGGTKVEIKR"
data_value = "2.02 µg/mL"

[[record]]
binder = "37.7H (antibody, V domains shown) VH: EVQLVQSGGGLVKAGGSLRLSCAASGFTFSTYSMNWIRQAPGKGLEWVASISSRSGSHINYVDSVKGRFTISRDNARDLLYLQMNSLRVDDSALYYCARDRRSGTSPLPLDVWGQGTTVTVFS VL: DQSALTQPASVSGSPGQSITISCTGTGSDIGGYNFVSWYQQYPGKAPKLIIYEVRIRASGVSNRFSGSKSGNTASLTISGLQAEDEADYYCNSYSIHSPWVFGGGTKLTVLR"
data_value = "0.077 µg/mL"

[[record]]
binder = "10.4B (antibody) VH: DQVQLVQSGGGVVQPGRSLRVSCVTSGFNFRAYGMHWVRQIPGKGLEWVADIWSAETNRHYADSVKGRFTISRDNSKSTLYLQMNSLRAEDTGVYFCAKARPGYDYVVDLWGQGTLVIVSSASTKGPSVFPLAPCSRSTSGGTAALGCLVKDYFPEPVTVSWNSGALTSGVHTFPAVLQSSGL VL: DEIVLTQSPSSLSASVGDRVTITCRASRDINTYLGWFQQRPGKAPKSLIYGASNLQNGVPSRFSGSGSGTYFTLTINGLQTEDFATYYCQQYSIYPLSLGGGTKADMKRTVAAPSVFIFPPSDEQLKSGTASVVCLLNNFYPREAKVQWKVDNALQSGNSQESVTEQDSKDSTYSLSSTLTLSKADYEKHKVYACEVTHQGLSSP"
data_value = "> 20 µg/mL"

